# EXPERIMENTAL SYSTEM: T1, S7ecto-Fc (human siglec7 ectodomain fused with human Fc domain) (human, UniProt Q9Y286 19-353)
# T1 construct: extracellular domain; bought from R&D Systems; not shown: human Fc domain
# T1 sequence (Q9Y286 19-353): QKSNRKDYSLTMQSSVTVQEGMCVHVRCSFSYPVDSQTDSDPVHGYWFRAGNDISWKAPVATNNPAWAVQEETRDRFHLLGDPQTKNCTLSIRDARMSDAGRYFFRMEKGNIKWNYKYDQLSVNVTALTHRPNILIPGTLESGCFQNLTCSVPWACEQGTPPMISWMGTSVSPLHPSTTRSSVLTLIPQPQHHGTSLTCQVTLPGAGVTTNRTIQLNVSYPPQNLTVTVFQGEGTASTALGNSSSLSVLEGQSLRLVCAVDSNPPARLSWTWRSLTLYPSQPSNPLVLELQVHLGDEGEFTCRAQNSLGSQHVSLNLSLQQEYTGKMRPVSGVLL
# TEST NAME: ELISA
READOUT: A450
Provide a numeric answer; units are not to be included.

A selection of reference data follows.
BINDER: S0042 (antibody, V domains shown, human variable domains with mouse constant regions (Trianni mouse hybridoma)) VH: QVQLVQSGTEVKKPGASVKVSCKVSGYTLSDLSIHWVRQAPGKGLEWMGGFEPEDGEIIYAQKFQGRVIMTEDTSTDTAYMKLSSLRSEDTAVYYCATDKRYFDWLLSGFDYWGQGTLVTVSS VL: DIQLTQSPSFLSASVGDRVTITCRASQGISSYLAWYQQKPGKAPKLLIFAASTLQSGVPSRFSGSGSGTEFTLTISSLQPEDFATYYCQRLHSYPRTFGQGTKVEIKRA
READOUT: A450
VALUE OBSERVED: 0.06

BINDER: S0023 (antibody, V domains shown, human variable domains with mouse constant regions (Trianni mouse hybridoma)) VH: EVQLLESGGGLVQPGGSLRLSCAASGFTFSTFAMSWVRQAPGKGLEWVSTISGGGDSTYYADSVKGRFTISRDNSKNMMSLQMNSLRAVDTAVYYCVKGGGDEYFYYGMDVWGQGTTVTVSS VL: DIQMTQSPSSLSASVGDRVTITCRASQGIRNDLGWYQQKPGKAPKRLIYSASSLQSGVPSRFSGSGSGTEFTLTISSLQPEDFATYYCLQHNSYPYTFGQGTPLDIKR
READOUT: A450
VALUE OBSERVED: 0.05

BINDER: S0040 (antibody, V domains shown, human variable domains with mouse constant regions (Trianni mouse hybridoma)) VH: QVQLVQSGAEVKKPGASVKVSCKASGYTFTSYDINWVRQATGQGLEWMGWMNPNSGNTGYAQNFQGRVTMTRNTSINTAYMELSSLRSEDTAVYYCTRGGPTLVRGVIIRDAFDFWGQGTMVTVSS VL: EIVMTQSPATLSVSPGERATLSCRASQSVSNSFAWYQQKPGQAPRLLIYGAFTRATGIPARFSGSGSGTEFTLTISSLQSEDFAVYYCQQYKTWPLTFGGGTKVEIKR
READOUT: A450
VALUE OBSERVED: 0.05

Field: next binder
In: Give the reported value of A450 for this record: S0103 (antibody, V domains shown, human variable domains with mouse constant regions (Trianni mouse hybridoma)) VH: QVQLVQSGAEVKKPGASVKVSCKASGYTFTSYDINWVRQATGQGLEWMGWMNPNSGNTGYAQNFQGRVTMTRDTSVNTAYMELSSLRSEDTAVYYCARGGPNLVRGVIIRDAFDFWGQGTMVTVSS VL: EIVMTQSPATLSVSPGERATLSCRASQSVSNSFAWYQQKPGQAPRLLIYGAFTRATGIPARFSGSGSGIEFTLTISSLQSEDFAVYYCQQYKTWPLTFGGGTKVEIKR
Out: 0.06
